- TEST DETAILS: soluble fraction after stress (log2 fold change); higher = more stays soluble; pooled small domains, quantitative proteomics
- CONDITION DETAILS: stress: pH 4
// reported soluble fraction (log2) for each item listed

INPUT SEQUENCE | READOUT QUALIFIER | soluble fraction (log2)
HMGSIMIIVLKENAPQQAAEKLMKEIRAKGLQIDVSKGTRKTVLGLVGDTSVIDMEHVQGYDYVDKVLRV | = | -0.674
HMPQLVGDVDGDGRVSVTDGEWIRASYGALPWYAGWRAAADLDGSRKIDVVDLELLRTKMGN | = | -0.772
HMAQSEDLMVMAQRILGGPEAQSFFQAEATRQGLAGFLPEPIPDFLQRLERKLSGSVGSATAHAMVAQTMG | = | -0.279
HMSFDNIKVGYISETAGYVKGISLADANEYAKLNPDTEFIFIDGDEKVRFLTINEVNGLTPKNLLRSDP | = | -1.6
HMDEKSGWLHLAPHEGALRAALYAEHAVQEERTAPDGSQWLRLVLREKHYHQIQSKYNRRLTLHTQPDPS | ≥ | 0.43
HMKTVPNVEGEKDGTAQSAIESAGLKVGKVTYQYDDNTSKGLVISQSVKGGEKVKPNTAIDLVVSNGPK | = | 0.22
HMKKAMIISTKRGTPAAELDKIIREFEAKGLSVTMIRGTDYNVFGLVGDTTVIDEKQVRANPYVENVQRV | = | -0.325
HMNNLSEELNVTFPRTRDQLLNILHYVQHKYGYISKVSMQEIGNHIKMPVSEIYGTVTSYSEFKI | = | -0.965
HMEVSTRQVRAALRDIIEAEDKKRPLSDEAITARLREQGLPVARRTVAKYREQMGILAARLRK | = | 0.0717
HMVARPVLQIGSTGADVTAIQARLGVSQTGYFGVLTAAAVTNFQRSNGIAASGKVGATTWAKLMQSA | = | 0.316
HMVDLANIDPIASSIKLNGAEADASFNTLEDRRVSVSGSFEENKNYTMEYTFKDYAGGSVTGTLDFKTLA | = | 0.129
HMTFAPTAIPSLTRPMEELMSWSFTPNEAFILSRINGLWDVRSIAKISPFPEGEVLRVFEKLHDGGLIRW | = | -1.54
HMGGLSAEQKNGIQSVLKNFDPKNLTSADAKSITSEFKKLGVQPGKDLETTMAASGFDAKEVGRLAF | = | 0.177
HMSNLNHSFQYKKNIGRKISLTYLGRDNESISKIYELIDSNDSGILVKNKNVEIFIHYEKIVSAKIKVS | = | -0.213
HMGSATAPDLKGLTYEQAQTKAEDAGYNIEKGEDVYDNDVEKGKVASQDPEAGAEAKEGSVITVNISK | = | 0.168
HMSPAETGIYHILVENGKPNRHGLDATNKNENWLRQFLITQNTRLEDVFLLLADDGGGIRFFKSQ | = | -0.658
HMEEMTIRQKRTMIFFIEATKHILQEDGYDHLTIREIAQRAGYNAATLYHYFRDLDELIIYGSVG | = | -0.602
HMLDSNILTLIKELKIRHHFTATQTHQLEKVIQQAHALGLDNSEIRSLANSSPSAKSLINDLNQKLEPLRL | ≥ | 0.43
HMEHTPHGVALLRTLMDQYGLKAADLANELGSKSNVSNILNGRRALTVSHIKMLAERFNLPADAFI | = | -0.137
HMVDFHAAYSILRIAPGASWQEIQAAYEKLNDAWREDRYPQVPFWNEKAAFKRREVEQAYEKLRKFHALRH | = | 0.0778
HMFHGEGVQANNIQAYIVLKMAAVNGAEDALDTADEVSEKMSREDLETATQVLGQIFRKYLMELQSA | = | -1.12
HMEIALNDKQILLFSNKLVHEPSFASKYSKVGESYDDFAIRISENLTIPDKVQEYLPYLEKVGFNI | = | -0.191
HMLTKSELVFDTLKKRIIDGELEPGTELVISRISEEFNVSTIPVREAIKTLASEGLVEMEPHKSAKVAE | = | -0.0422
HMEDDRLIQNLLLTAKNLVMDVGRMDESALAENEDTVRTAMLFALGYLYENRSNPDYHKLTLNLRSILFA | = | -0.807
HMGLPLETVVTHATKLEIVRDGRVSGSIGLSAGVKVDVIALEGDNLQVRYRSLSGRVPVAHTGLAALA | = | -0.533
HMPMDYFELFNIPRNANRETIKKILDQEYEKYRARVVSPVLEIRHEAELMLVEISKAKQVLLG | = | -0.223
HMFTDAEIKQFAAAAVEVTKIQQDSTISAADKQPKMLAVVQSSGLPPEKFNQIGQAAAADPALQQRIQA | = | 0.159
HMFDNPLSERDKEILNHISMGKSNKEIANQVGLAEQTIKNTISVILDKTFTSNRAQAASMATKNKW | = | -0.0659
HMSDSAFAEMRRELEALRNSNAEYERALSNFFPEAEDKALAAEAFYQNREYDELVAEREEANVIDGLKR | = | -0.815
HMQQLIEFSVTKGHPWINKKIMDLNLPENQLILTIQREGHVVSAEGKTIILENDRITISTDDR | = | -1.43
HMSGRPPTYTAEERSAVIAAALSRPADLGLPFASWTLDRLVAYLGEKGIGMKRSRMSEVLLAEGLKW | = | -0.0116
HMYSINKTEFGERIKSAREELKMTQTQLAQLLKTSQTTVAKYEHGEQIPRADVLATISKATGKSTDWLLFG | = | 0.11
HMNPDDEMLLTYLTKLLVDKQFIVNSNDIFEYILRRVDRTYDGIYDIVSKLDVLSLEKKRQLTIPLIKEI | = | 0.103

###

// reported soluble fraction (log2) for each item listed
- TEST DETAILS: soluble fraction after stress (log2 fold change); higher = more stays soluble; pooled small domains, quantitative proteomics
- CONDITION DETAILS: stress: pH 4

INPUT SEQUENCE | soluble fraction (log2)
HMIYMIDPNDEIAVKLDEIYQRYLNRTIDPEGLIFFYNQIRNAQMGYSDVEKRILESPEYVSIPK | -1.23
HMTNVNSLIGKKAIVIQDIDNLKSTGQVKIGGEIWSAQSESNDIISKDTEVEIVKIDGVKLIVRLVPV | 0.225
HMLEDIDNSIKKEIILEHYDKMLEFHGDYGAIIFRKLLHAYSKGYTGANEFRDLVNQISDKNIMRDLIESF | -1.17
HMIGRIKGQLIEKKSDSVVIDVHGIGYVVYVTEKTARSLTLGDQSRDISLYSELLVKEDLLQLVGFI | -0.0095
HMIKNKDRIQYTLAHRKAFRKIEKELLGYNTFRSLFHDLDKVFLYPFFDYKKVHNFHRNHAHH | 0.0879
HMAGGVFELTGKVTADAKAGDLVYVKAATGAGTKPVVTTVKTGADVIIGWLKEPVSSASVDQKMQVVLA | 0.22
HMVLALRGIVQGGAEPLVILSDGRTSQSLAVGERFLAYEVVEIGRTGVRLRGPEGEIWLAMASF | -1.37
HMDQDIILHKVQPGDTLSKILLHYHSHQDRNKLQGLIAESMTANPFIKNPDLIYPGQLIQVPVPA | 0.124
HMKERLLDPYKDFIVNYLQKYPYTPAAVMHDKLKESYPDFPKVDPKTIYNFVMLLRRDFNIPKV | -0.406
HMRDADRYAFMQENVEDFAKDMRRKHMTYDVLYEEYIRRTDNPYGYTQFKAIVQEYEKNHDYK | 0.253
HMESPELIHILKEAEWQIWQQIQGLPEKQRIAMTLFAMDDLSYQEIADVMKVSVSAIESLLFRARTQLKKY | -0.71
HMKKATYDVMVREALVSFKKKGATLQSIKKKIKADYAIEANATAVKSAIQKGMEAGSIRKSYDLYFFMD | 0.15
HMKKYDIKEAQEIAEINRIPGLVTTSHGRRVYFDPKIMQYVSEEQIVKKYGQKTVKMLDQWYVSNILNK | 0.419
HMFVTGTTIKKLREEKRMTQGELAQMIGVSDKAVSKWETGRGLPDISLLEPLSRALGISVAELFAGQH | -0.0399
HMTEKIVFNIDGQTGRIDKILADFMTGTSRSQIQAWVKDGNLMVNDKAVKSNYKVQDGDLLELTIPEPEQ | -0.378
HMDFITPYEIEQGQYEGAELYEDGKFEEAFSLSSIAAQRGMKTAQYLLGIMFLKGEYVDQSLAIGMAW | -1.18
HMSVKTIRKTEFAKRLYSLMLEKNWNQSDLARASGMGRDSVSQYIRANNTPSPQNLKKLAEALGVEPVELY | 0.0509

###

// reported soluble fraction (log2) for each item listed
- TEST DETAILS: soluble fraction after stress (log2 fold change); higher = more stays soluble; pooled small domains, quantitative proteomics
- CONDITION DETAILS: stress: pH 4

INPUT SEQUENCE | READOUT QUALIFIER | soluble fraction (log2)
HMKIHNSIREITDFDRKQNSNIPSDAKYRIVFYTPQGNKTIIPEELQGLQYYRSKELAEIALNKKLNSN | = | 0.0952
HMKSVFQPIYEDLLSRIQDGRLLPGMPLPSENALAVQYGTSRPTIRRAIGLLVEKSLVIRQPGIGSIVAS | = | -0.493
HMDAAYVYVIGTRVNQRAGPSTSNAVMGVLSEGTRVETLRDEGQWTQIRSNFGTGWMSSSFLSSVAP | = | 0.124
HMAQLTPREREVLVLIAEGKSNKEIADQLNIGVRTIETHRERIMRRLNIHSVAGLTKYAIANGLVTL | = | 0.0239
HMLEEIIDVKRFLVENVRGVSEKTALAILSEFGDKTMDVLRNSPNELYRIKGMSGKRIEVIKDAIANATAS | = | -1.33
HMNVRRSRTHEKVTTYQGYDIFINKEPNQRGMFTSAPMRGDNEYSNLRGEGKSKQDAVNMTKEKIDEIAA | = | 0.229
HMEQEVLDLLFDAIRSLPEKYRRLFDMSFEQGLKNAEIAALLHVSESAVKKQKASMIQQLRDDLLRKTGKD | = | -0.564
HMNALVAKYKQGVTEEQQQGQGIIIIKRVVVRDQEAWVYEKKIFDWGGVSYFRDKQRITASTFNQETAL | = | -1.12
HMHFIMEYRIRAYVDELFESAPRTQRAYELKIELTQNLIDKYYALVSEGKSEQDAYNLTVMSIGDVREL | = | -0.959
HMDRRSTTLQDIYTRIDAEEISEALELIPKLGEIEFEQNRAEIAEAAGVRPAVLDKLRKQAAKQENNKK | = | -0.216
HMEPLVSKVFQVSYQKTADLVALIKSEDSKLLSARGTLISDERTSQIFVQDTPTRLERISMIVNGL | = | -0.895
HMEYSTLEIYSQTKKDLIEKSPHLNKVVYDKDDGYIYLLSFEKEDDLTSFKSNIENDSDIKRIEANV | = | -0.91
HMTAIKAGDLVKITGTKYYGGQTIPGWVKNQNWYVQEVSGDRAVINKNESGTNAIMSPIRVSDLTPVS | = | -0.0468
HMIINKFERRKEIQIQFNNQERIKFKDFFLNLSKENIIVSFLILLELVRESLIDFSGTNENDIEFFIK | = | -0.834
HMTLKVQLSEISKMVSLSYIAKKYFNKSQSWLSQRINGNTIHNKPAKFTSEELATLQFALKDIGNILNSTV | = | -0.658
HMVLTYYSVLGVKTDATTEEIKSTYKQLAIRNHPDRGGSEEVMKMINLAAEILSDPKSRKEYDLSLDA | = | -1.48
HMAQVSDDAELEKWADTAIDEHPKPVEEYRAGNAASINFLMGQVMKMSRGKANPGAVMQILKQKLD | = | 0.22
HMELMKPPGYWQSLENAIYESKKVIKEHGFDTLPSSNKLRELDYHGLSRAISVHHSGFPNFREIMNQELGI | = | -0.0528
HMYRPQQEFTMRDLFQNNLNGSESASVRRDALGAELGIGYGNAKRFLERLNHYGVSREEFTAALEKLESE | = | -0.205
HMSSKTKVEDLGLSTRTLNALIGGSIKTAGGLTRKSESDLLSLDGLGEKGITEIKEALENIGLSLK | = | 0.0218
HMEKYIVEAEEQGKRLDMYISSKDEELTRTSAQRLIEQGDILVNNKKVKVAYKVSEGDIIAVEKQ | = | 0.00594
HMLDEKFLSELMLALLRNHRRGLRAEVLLHKVRSNMELDGYKSLLVGVGRMEMWELAREIIDFVKAEG | = | -2.07
HMNNLTEEAINHLVLEVKNVLLTDALFLGKATDSQLMLRIKETIDQRNGQYNIGMNDRERIARRVFARLR | ≥ | 0.43
HMLPITPGQKYKFVVKSAEEAAAIIRDKLGEMAQVISVRQVEGEGLARFLKSPKLEIIAQVPVA | = | -0.349
HMNSTRAPYLLDFEEDAAIREARRAGLVPRIARQPSGEPVGRVILQSHDYDYPMKRGDTILITISSG | = | -0.797
HMVRSEDLIGLQGRITLATDVETRGFVELSVKGSLLRRPALSLKGPLAKNTAVVVTASNDHTLEVEAL | = | -0.77
HMLKGTVKWFNESKGFGFIEQEEGKDVFVHYSAITGSGFKTLNEGDKVQFEIVDGPKGPAAANVSK | = | -0.927
HMGNKWKPIILYLLSNGSMRFGMLNALIPTISKKVLTNQLKELENDGLLLRQSFAEIPPRVEYSLTEKA | = | 0.165
HMSIPVLKDGTYESWGNEKVYKVGDRVMVGSNGYVAKWWNQDETPEKAIINPNDSPWRPMTESEIMEVLK | = | -0.113
HMSVNEKVRLFRELNQWSQEEMAERMNMSVAGYAKIERGETNISLHKLKQIASVLQIDLLDLVS | = | -0.867
HMQAKNGTVTGSVVNVRGGAGTQYAVKGKASRGTKVTILGQQSSWLNVRLDNGVTGWIHADYVQISE | = | -1.43
HMDGRSLSHATLEEIRIRAVQRVEAGESPEVVVKALGFSRPRIYEWLALYREGGLEALRAKPV | = | -0.53
HMPSEQGANKARDIIFRHHMKVDVWVGSWENARNYAEQAIKQGVKVIISRGGTAALLRHSLDTAIIKVR | = | 0.22
